Taken from patent US20210130473A1.

# target_system: T1, human ASGR1 (asialoglycoprotein receptor 1) on cells (human, UniProt P07306 1-291)
# T1 construct: whole, on cells; also called HepG2 cells; CHO-S cells transfected with human ASGR1 full length DNA
# T1 sequence (looked up): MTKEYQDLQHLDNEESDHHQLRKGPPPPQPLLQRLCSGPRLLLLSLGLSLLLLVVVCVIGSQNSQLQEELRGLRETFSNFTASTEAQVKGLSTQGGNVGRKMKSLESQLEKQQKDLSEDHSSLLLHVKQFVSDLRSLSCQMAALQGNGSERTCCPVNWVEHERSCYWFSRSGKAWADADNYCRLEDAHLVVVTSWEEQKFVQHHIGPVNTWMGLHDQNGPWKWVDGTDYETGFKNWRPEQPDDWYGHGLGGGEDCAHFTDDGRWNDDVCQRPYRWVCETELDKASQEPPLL
# assay_comment: competition flow cytometry on CHO-S cells with human ASGR1; 200 nM F(ab')2 against 33 nM GalNac-hFc
observed_property: % Blocking GalNac Binding (%)

>>> value_observed("F(ab')2 fragment of hzL4L-14 (F(ab')2) VH: QVQLQESGPGLVKPSQTLSLTCTVSGYSISSDYAWNWIRQHPGKGLEWIGYISYSGSTRYNPSLKSRVTITRDTSKNQFSLKLSSVTAADTAVYYCARRYRYDEGYGMDYWGQGTTVTVSS VL: DIQMTQSPSSLSASVGDRVTITCRASENIYSNLAWYQQKPGKAPKLLIYAATNLAEGVPSRFSGSGSGTDFTLTISSLQPEDFATYYCQHFWGTPPWTFGGGTKVEIK")
90.7
>>> value_observed("F(ab')2 fragment of K2E (F(ab')2) VH: QVQLQQSAAELARPGASVKMSCKASGYTFTSYTMHWVKQRPGQGLEWIGYISPSSGYTEYNQKFKDKTTLTADKSSSTAYMQLSSLTSEDSAVYYCARKFDYWGQGTTLTVSS VL: DIKMTQSPSSMYASLGERVTITCKASQDINSYLSWFQQKPGKSPKTLIYRANRLVDGVPSRFSGSGSGQDFSLTISSLEYEDMGIYYCLQYDEFPFTFGSGTKLEIK")
10
>>> value_observed("F(ab')2 fragment of G2D (F(ab')2) VH: EVQLQQSGPELVKPGASVKISCKASGYSFTGYYMHWVKQSHVKSLEWIGRINPNNGATNYNQNFKDKASLTVDKSSSTAYMEFHSLTSEDSAVYYCTSVNFYYWGQGTTLTVSS VL: DIKMTQSPSSMYASLGERVTITCKASQVINSYLSWFQQKPGKSPETLIYRANTLVDGVPSRFSGSGSGQDYSLTISSLEYEDLGIYYCLQYAEFPYTFGGGTKLEIK")
-0.3
